The reported measurements were obtained from ChEMBL document CHEMBL1121384.

System: Mus musculus
Experiment: Toxicity administered perorally was measured in mice
Assay type: organism-based
Conditions: in vivo, po
value kind: LD50 (mmol/kg)
The reply should contain only the number, in mmol/kg.

Recorded LD50, per entry:
compound="O=C(O)/C=C\\C(=O)O.O=C(O)/C=C\\C(=O)O.O=C(O)CCN1CCN(CCOC(c2ccccc2)c2ccc(F)cc2)CC1 (stereo not drawn)" test_target="Mus musculus" value_kind=LD50 units_label=mmol/kg endpoint_value=1.3
compound="O=C(O)/C=C\\C(=O)O.O=C(O)/C=C\\C(=O)O.O=C(O)CCCN1CCN(CCOC(c2ccccc2)c2ccc(F)cc2)CC1 (stereo not drawn)" test_target="Mus musculus" value_kind=LD50 units_label=mmol/kg endpoint_value=1.9
compound=O=C([O-])CCN1CCN(CCOC(c2ccccc2)c2ccccc2)CC1.[Na+] test_target="Mus musculus" value_kind=LD50 units_label=mmol/kg endpoint_value=3.6
compound=Cl.NC(=O)CCN1CCN(CCOC(c2ccccc2)c2ccccc2)CC1 test_target="Mus musculus" value_kind=LD50 units_label=mmol/kg endpoint_value=2.1
compound="COc1cc(C(OCCN2CCN(CCC(=O)O)CC2)c2ccccc2)cc(OC)c1OC.O=C(O)/C=C\\C(=O)O.O=C(O)/C=C\\C(=O)O (stereo not drawn)" test_target="Mus musculus" value_kind=LD50 units_label=mmol/kg endpoint_value=2.3

Input line: Which value of LD50 has been reported for "O=C(CN1CCN(CCOC(c2ccccc2)c2ccccc2)CC1)N1CCN(Cc2ccc3c(c2)OCO3)CC1.O=C(O)/C=C\C(=O)O.O=C(O)/C=C\C(=O)O" in the records?
Output line: 0.7

Input line: Which value of LD50 has been reported for "O=C([O-])CN1CCN(CCOC(c2ccccc2)c2ccccc2)CC1.[Na+]" in the records?
Output line: 4.3

Input line: Which value of LD50 has been reported for "CCOC(=O)CCN1CCN(CCOC(c2ccc(F)cc2)c2ccc(F)cc2)CC1.Cl" in the records?
Output line: 1.2

Input line: Which value of LD50 has been reported for "Cl.O=C(O)CCCN1CCN(CCOC(c2ccccc2)c2ccccc2)CC1" in the records?
Output line: 3.4

Input line: Which value of LD50 has been reported for O=C(O)/C=C\C(=O)O.O=C(O)/C=C\C(=O)O.O=C(O)CCCCN1CCN(CCOC(c2ccccc2)c2ccc(F)cc2)CC1 (stereo not drawn) in the records?
Output line: 2.2

Input line: Which value of LD50 has been reported for O=C(O)/C=C\C(=O)O.O=C(O)/C=C\C(=O)O.O=C(O)CCN1CCN(CCOC(c2ccccc2)c2ccc(Cl)cc2)CC1 (stereo not drawn) in the records?
Output line: 1.6

Input line: Which value of LD50 has been reported for "Cl.N#CCCN1CCN(CCOC(c2ccccc2)c2ccccc2)CC1" in the records?
Output line: 0.7

Input line: Which value of LD50 has been reported for "CCOC(=O)CCN1CCN(CCCOC(c2ccccc2)c2ccccc2)CC1.Cl" in the records?
Output line: 1.8

Input line: Which value of LD50 has been reported for O=C(O)/C=C\C(=O)O.O=C(O)/C=C\C(=O)O.O=C(O)CN1CCN(CCOC(c2ccccc2)c2ccc(F)cc2)CC1 (stereo not drawn) in the records?
Output line: 2.8

----------
Species on record: Cavia porcellus
Experiment: In vitro anticholinergic activity was determined by acetylcholine induced contraction of guinea pig ileum
Format: functional
Details: read-out: pA2 (converted)
Counter-ions that a name gives are not always drawn.
Reported log10 of Kb by item:
Scale: decimal log of Kb, Kb in µM.

Recorded log10 of Kb, per entry:
molecule=O=C([O-])CCN1CCN(CCOC(c2ccccc2)c2ccccc2)CC1.[Na+] endpoint_value=2.06
molecule="O=C(O)/C=C\\C(=O)O.O=C(O)/C=C\\C(=O)O.O=C(O)CCN1CCN(CCOC(c2ccccc2)c2ccc(F)cc2)CC1 (stereo unspecified)" endpoint_value=0.86
molecule="COc1ccc(CN(CCN(C)C)c2ccccn2)cc1 [PYRILAMINE MALEATE]" endpoint_value=0.60
molecule="CCCC(OCCN1CCN(CCC(=O)O)CC1)c1ccccc1.O=C(O)/C=C\\C(=O)O.O=C(O)/C=C\\C(=O)O (stereo unspecified)" endpoint_value=0.29

Now look at this entry.
Input line: Which value of log10 of Kb has been reported for "CCOC(=O)CCN1CCN(CCOC(c2ccc(F)cc2)c2ccc(F)cc2)CC1.Cl" in the records?
Output line: -0.51
